B1: mRNA-splicing (parent)
chain: AGUUGCUGCUGGGAGCUCCAGCACAGUGAAAUGGACAGAAGGGCAGAGCAA

Variants of: B1
Assay: exon inclusion enrichment index; higher = more inclusion; WT1 exon 5 minigene, HEK293
Grouping by measured exon inclusion enrichment index is done with the following cut points: lo = under 0.1, med = from 0.1 up to 2, hi = 2 and over

Known results for variants:
AGUUGCUGCUGGGAGCUCCGGCACAGUGAAAUGGACAGAAGGGCAGAGCAA [A20G]    med
AGUUCUUCUCGGGAGCUCCAGCACAGUGACCUGGACAGAAGGGCAGAGCAA [G5C C6U G8C C9U U10C A30C A31C]    hi
AGUUGCUGCUGGGAGCUCCAGCACAGUGAAAUGGAGCGAAGGGCAGAGCAA [C36G A37C]    med
AGUUAGGGAUGGGAGCUCCAGCACAGUGAAUUGGACAGAAGGGCAGAGCAA [G5A C6G U7G C9A A31U]    lo
AGUUCACACAGGGAGCUCCAGCACAGUGAAAUGGACAGAGUGGCAGAGCAA [G5C C6A U7C G8A U10A A40G G41U]    lo

Hi, small favor: classify AGUUGAAGAAGGGAGCUCCAGCACAGUGAAAUGGAACGAAGGGCAGAGCAA [C6A U7A C9A U10A C36A A37C] by its exon inclusion enrichment index when you get a moment.
med

Next variant: AGUUCACACAGGGAGCUCCAGCACAGUGAAAUGGACAGAAGGGCUUAGCAA [G5C C6A U7C G8A U10A A45U G46U]
lo

Next variant: AGUUGCCGAAGGGAGCUCCAGCACAGUGAAAUGGACAGAAGGGCAGAGCAA [U7C C9A U10A]
med

Next variant: AGUUGACGACGGGAGCUCCAGCACAGUGAGUUGGACAGAAGGGCAGAGCAA [C6A U7C C9A U10C A30G A31U]
med

Next variant: AGUUCUUCUCGGGAGCUCCAGCACAUGGAAAUGGACAGAAGGGCAGAGCAA [G5C C6U G8C C9U U10C G26U U27G]
hi

Next variant: AGUUGAAGAAGGGUGCUCCAGCACAGUGAAAUGGACAGAAGGGCAGAGCAA [C6A U7A C9A U10A A14U]
med

Attribution: the RNAGym collection of RNA variant scans (doi:10.1101/gr.219683.116)
